Test system: Pseudomonas melanogenum IAM 1655
PROCEDURE DETAILS: Minimum inhibitory concentration, Pseudomonas melanogenum IAM 1655
Format: cell-based
CONDITIONS: Pseudomonas, IAM1655, read-out: Minimum Inhibitory Concentration
The molecules listed here are annotated with their MIC.
Param answer (str): number followed by unit.

{"MOLECULE": "NC[C@@H]1CC[C@@H](N)[C@@H](O[C@H]2[C@H](O)[C@@H](O[C@H]3O[C@H](CO)[C@@H](O)[C@H](N)[C@H]3O)[C@H](N)C[C@@H]2N)O1 [DKB, Dibekacin, reference compound]", "REPORTED MEASUREMENT": "1.56 µg/mL"}
{"MOLECULE": "CNC1C(O)C(OC2C(N)CC(N)C(OC3OC(CN)CCC3N)C2O)OC(CO)C1(C)O (stereo not shown) [I-B2]", "REPORTED MEASUREMENT": "1.56 µg/mL"}
{"MOLECULE": "CNCC1CCC(N)C(OC2C(N)CC(N)C(OC3OC(CO)C(C)(O)C(NC)C3O)C2O)O1 (stereo not shown) [I-B1]", "REPORTED MEASUREMENT": "1.56 µg/mL"}

Below: the item to evaluate.
Lookup: Entry NC[C@H]1O[C@H](O[C@H]2[C@H](O)[C@@H](O[C@H]3O[C@H](CO)[C@@H](O)[C@H](N)[C@H]3O)[C@H](N)C[C@@H]2N)[C@H](N)[C@@H](O)[C@@H]1O [KM-B, Kanamycin B, reference compound] , system Pseudomonas melanogenum IAM 1655: what MIC was measured?
Found: 50 µg/mL
